Assay: protein stability index of a GFP-peptide fusion (GPS, HEK-293T) (PSI 1-6); higher = more stable;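 note: 24-mer peptide tiles fused after GFP, lentivirally expressed, FACS-sorted into six equal bins by GFP/DsRed ratio, decoded by Illumina sequencing, PSI is the read-weighted mean bin number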
Conditions: treatment: DMSO; c terminus: a fixed tail appended
Label rule, in plain words: protein stability index of 4 and up is criterion met, under 4 is criterion not met.

# example entries with known answers
{"Residue Sequence": "EVHFLHEESILERVQQHIESKLLG [MLH1]", "Label Value": "criterion not met"}
{"Residue Sequence": "KRSSLPRPSSILPPRRGVSGDRDE [MAP2]", "Label Value": "criterion met"}
{"Residue Sequence": "CRAPPPEARGIRAPPLPDSPQPLA [FCHO1]", "Label Value": "criterion met"}
{"Residue Sequence": "LPSNPCATTNACEKPIGSCVTNPC [KRT33B]", "Label Value": "criterion met"}
{"Residue Sequence": "ELRDLQVSVESQQVQQVEVEATVK [PRPH]", "Label Value": "criterion met"}
{"Residue Sequence": "LEAIQLDGEILFSLLQKVSPVAHK [TBC1D10A]", "Label Value": "criterion not met"}

Reported protein stability index at or above 4? NVGEISVSTRLTVLREDQIPRGFP [PTPRD]
criterion not met

Reported protein stability index at or above 4? PMQERRASFYACRLDKHLYVIGGR [KLHL14]
criterion not met

Reported protein stability index at or above 4? CVNYEGQSAYDVADMLKQYFRDLP [DLC1]
criterion not met

Reported protein stability index at or above 4? DEAKKFHLRPELRSQMQGPRTRAR [KLHL12]
criterion met

Reported protein stability index at or above 4? QAFRAIDRADYYLEEFKENAYKDL [PCMTD2]
criterion not met
